Task for the reader: assign each of the following compounds its reported TGI.
# Test system: SK-MEL-5 melanoma
# Test: NCI tumour cell line growth inhibition, 48 h

Give TGI for the following compound: "COc1cccc(CCn2c(N)c(C(=O)O)c3ccc([N+](=O)[O-])cc3c2=O)c1"
> 100 µM

Give TGI for the following compound: "CCc1nc(-n2c(CC)nc3ccccc3c2=O)nc(N)c1-c1ccc(Cl)cc1"
> 100 µM

Give TGI for the following compound: N#CC(c1ccccc1)N(CCc1ccccc1)C(=O)c1ccccc1 (stereo unspecified)
> 100 µM

Give TGI for the following compound: "COc1ccc2[nH]c(-c3ccccc3)c(C=C(C#N)C#N)c2c1"
> 100 µM

Give TGI for the following compound: "CN(CCCCN1CCCC1)CCCCN(C)C(=O)Cc1ccc(Cl)c(Cl)c1"
19.9 µM

Give TGI for the following compound: "CN(C)/N=C1\C=C2CC[C@H](O[Si](C)(C)C(C)(C)C)[C@@]2(C)CC1"
24.9 µM

Give TGI for the following compound: "CSC1=Nc2c(c(C)c(-c3ccccc3)n2CCCCl)C2=NC(=O)CN12"
14.1 µM

Give TGI for the following compound: C=CC1(c2ccccc2Cl)N/C(=C/OCC)CO1 (stereo unspecified)
> 100 µM

Give TGI for the following compound: C=C1C(=O)CCC1C(=O)O (stereo unspecified)
> 100 µM

Give TGI for the following compound: "COCOc1cc(OC)c(Br)cc1C/C(=N/O)C(=O)OC"
> 100 µM

Give TGI for the following compound: "COc1ccc2c(c1)C(=O)c1c-2c(OCCN(C)C)nc2cc(OC)ccc12"
3.38 µM

* * *

# Tested on: A549 NSCLC
# Test: NCI tumour cell line growth inhibition, 48 h
Where a SMILES comes first, the peptide text is derived from it. The star is where a group is joined. Boc = CC(C)(C)OC(=O)*
Rule: TGI of 30 µM or more gives 1.0; anything lower gives 0.0.

Is TGI at least 30 µM? Consider "CN(C)Cc1cc(C(=O)/C=C/c2ccc(Br)cc2)cc(CN(C)C)c1O"
0.0

Is TGI at least 30 µM? Consider "COc1ccc(OC)c(/C=C/C(=O)C(C)(C)C)c1"
1.0

Is TGI at least 30 µM? Consider CCCCNC(=O)OCC(COc1ccccc1OC)OC(=O)NCCCC (centres undefined)
1.0

Is TGI at least 30 µM? Consider "Cc1cc(Nc2cc(CN3CCOCC3)c3nc(C)c(Cc4ccc(Cl)cc4F)n3n2)n[nH]1"
0.0

Is TGI at least 30 µM? Consider "COc1ccc2c(c1)C(=O)c1c-2c(OCCN(C)C)nc2cc(OC)ccc12"
0.0

Is TGI at least 30 µM? Consider "CN(C)CCNC(=O)c1cccc2ccc(-c3cccnc3)nc12"
1.0

Is TGI at least 30 µM? Consider "CN(C)C(=S)/N=c1\ssc(=S)n1-c1ccccc1"
1.0

Is TGI at least 30 µM? Consider COc1ccc2c(c1)CCC(CN1CCN(CCOC(c3ccc(F)cc3)c3ccc(F)cc3)CC1)C2O (centres undefined)
1.0

Is TGI at least 30 µM? Consider COC(=O)C(Cc1c[nH]c2ccccc12)NC(=O)C(Cc1c[nH]c2ccccc12)NC(=O)C(Cc1c[nH]c2ccccc12)NC(=O)OC(C)(C)C (stereo not drawn) (Boc-Trp-Trp-Trp-OMe; configuration not given here)
1.0

Is TGI at least 30 µM? Consider "O=C1N(CN2CCOCC2)CN(CN2CCOCC2)C(=O)N1Cc1ccc(-c2ccc(CN3C(=O)N(CN4CCOCC4)CN(CN4CCOCC4)C3=O)cc2)cc1"
1.0

Is TGI at least 30 µM? Consider "CC1=C(C(=O)NNC(=O)C(N)=O)CC(C(=O)NNC(=O)C(N)=O)=C(C)N1"
1.0

Is TGI at least 30 µM? Consider "N#C/C(=C\c1ccc(F)cc1)c1nc2ccccc2c(=O)[nH]1"
1.0

Is TGI at least 30 µM? Consider N#CC(c1ccccc1)N(CCc1ccccc1)C(=O)c1ccccc1 (centres undefined)
1.0

Is TGI at least 30 µM? Consider "Cc1ccc(C(=O)OC(C)C)cc1N=NN(C)C"
1.0

Is TGI at least 30 µM? Consider COc1cccc2c1C(=O)c1c(O)c3c(c(O)c1C2=O)C[C@@](O)(C(=O)CO)C[C@@H]3OC1CC(OC(C)=O)C(OC(C)=O)C(C)O1 (some centres undefined)
0.0

Is TGI at least 30 µM? Consider "Clc1nc(Cl)c2ncn(C/C=C/Cn3cnc4c(Cl)nc(Cl)nc43)c2n1"
1.0

Is TGI at least 30 µM? Consider "Cc1cc2c(=O)cc(-c3ccc(C(F)(F)F)cc3)oc2c(C(=O)O)c1C"
1.0

Is TGI at least 30 µM? Consider "COc1ccc2[nH]c(-c3ccccc3)c(C=C(C#N)C#N)c2c1"
1.0

Is TGI at least 30 µM? Consider "COc1ccc(S(=O)(=O)NC2=NCCN2C(=S)SN2CCn3c2nsc3=S)cc1OC"
1.0
